System: Pancreatin
Experiment: Protease stability in simulated intestinal fluid (Pancreatin-SIF, FaSSIF)
Assay type: in vitro ADME
Details: 60 min, 1 μM peptide, 37° C., read-out: FaSSIF 60 (min), remaining percent of peptide
Starred links: 1 amine or outer side, 2 acyl side, 3 side chain; linkers in the order of their positions; H or OH if unused. Positions of bridges follow the written chain, without caps; N, C: chain ends. Non-standard residues stand in square brackets, D forms with d. Residues, ends and D or L forms follow the SMILES beside them. *: point of attachment. Trp(7-Me) = Cc1cccc2c(C[C@H](N)C(=O)O)c[nH]c12; X1 = O=C(CCCCN[*:3])N[C@@H](CS[*:2])C(=O)[*:1]; 2Nal = N[C@@H](Cc1ccc2ccccc2c1)C(=O)O; Thp = NC1(C(=O)O)CCOCC1; Me2NCH2CH2 = CN(C)CC*; Aib = CC(C)(N)C(=O)O; Ava = NCCCCC(=O)O
Reported remaining at 1 h, 1 µM values for a set of compounds
ASSAY_READOUT: remaining at 1 h, 1 µM (%)

>  <COMPOUND>
CC(=O)N[C@H]1CCCCNC(=O)[C@@H]2CSSC[C@H](NC(=O)[C@H](CCC(N)=O)NC(=O)[C@H](Cc3c[nH]c4ccccc34)NC1=O)C(=O)N[C@@H](Cc1ccc(OCCN(C)C)cc1)C(=O)N[C@@H](Cc1ccc3ccccc3c1)C(=O)NC(C)(C)C(=O)N[C@H](C(=O)N[C@@H](C)C(=O)NCC(N)=O)CCC(=O)NCCCCC(=O)N2 [compound 32] (Ac-KWQCY(Me2NCH2CH2)[2Nal][Aib]EAG-NH2; linker 1-4-8 via X1)

>  <UNIT_INFO>
%

>  <VALUE_OBSERVED>
89

$$$$
>  <COMPOUND>
CC(=O)NCCCC[C@@H]1NC(=O)[C@H](Cc2c[nH]c3c(C)cccc23)NC(=O)[C@H]([C@@H](C)O)NC(=O)[C@H](CC(N)=O)NC(=O)[C@@H]2CSSC[C@H](NC1=O)C(=O)N[C@@H](Cc1ccc(OCCN(C)C)cc1)C(=O)N[C@@H](Cc1ccc3ccccc3c1)C(=O)NC1(CCOCC1)C(=O)N[C@H](C(=O)N[C@@H](CC(N)=O)C(=O)N[C@@H](Cc1c[nH]cn1)C(N)=O)CCC(=O)NCCCCC(=O)N2 [compound 21] ([Ava]CNT[Trp(7-Me)]K(Ac)CY(Me2NCH2CH2)[2Nal][Thp]ENH-NH2; disulfide 2-7; lactam N-11)

>  <UNIT_INFO>
%

>  <VALUE_OBSERVED>
89

$$$$

---

Test: Solubility testing of peptides at different pH
Format: physicochemical
Conditions: 50 mM phosphate buffer pH 6.5; target concentration 1 mg/ml; 2 hours agitation; read-out: Solubility Buffer pH 6.5
Starred links: 1 amine or outer side, 2 acyl side, 3 side chain; linkers in the order of their positions; H or OH if unused. Positions of bridges follow the written chain, without caps; N, C: chain ends. Non-standard residues stand in square brackets, D forms with d. Residues, ends and D or L forms follow the SMILES beside them. *: point of attachment. X5 = CN(C(=O)CCC(=O)[*:3])[C@@H](CS[*:2])C(=O)[*:1]; Trp(7-Me) = Cc1cccc2c(C[C@H](N)C(=O)O)c[nH]c12; 2Nal = N[C@@H](Cc1ccc2ccccc2c1)C(=O)O; 3Pal = N[C@@H](Cc1cccnc1)C(=O)O; Lys(Me) = CNCCCC[C@H](N)C(=O)O; Thp = NC1(C(=O)O)CCOCC1; Me2NCH2CH2 = CN(C)CC*; Sar = CNCC(=O)O
ASSAY_READOUT: solubility at 2 h

>  <MOLECULE>
CC(=O)NCCCC[C@@H]1NC(=O)[C@H](Cc2c[nH]c3c(C)cccc23)NC(=O)[C@@H](NC(C)=O)CCCCNC(=O)[C@@H]2CSSC[C@H](NC1=O)C(=O)N[C@@H](Cc1ccc(OCCN(C)C)cc1)C(=O)N[C@@H](Cc1ccc3ccccc3c1)C(=O)NC1(CCOCC1)C(=O)N[C@H](C(=O)N[C@@H](CC(N)=O)C(=O)N[C@@H](Cc1cccnc1)C(=O)N(C)CC(N)=O)CCCCN(C)C(=O)CCC(=O)N2C [compound 74] (Ac-K[Trp(7-Me)]K(Ac)CY(Me2NCH2CH2)[2Nal][Thp][Lys(Me)]N[3Pal][Sar]-NH2; linker 1-4-8 via X5)

>  <ASSAY_READOUT>
solubility at 2 h

>  <VALUE_OBSERVED>
≥ 980 µg/mL

$$$$
